assay: Cmax in rat plasma at 1 mg/kg, po; assay type: ADME, organism-based; design: dose 1 mg/kg, route po
ENDPOINT: Cmax (ng/mL)
Give bare numbers, in ng/mL.

Prompt: Recorded Cmax for `O=C1CCCN1c1nsnc1N1CCN(C[C@H]2COc3ccccc3O2)CC1` , please?
Completion: 113

* * *

species on record: Homo sapiens; assay: Selectivity index, ratio of Kb for antagonist activity at alpha2a-adrenoceptor (unknown origin) to Kb for antagonist activity at alpha2c-adrenoceptor (unknown origin)
ENDPOINT: Ratio

Use these answered entries as a reference point.
MOLECULE | ASSAY_RESULT
CC1CCN(c2nsnc2N2CCN(C[C@H]3COc4ccccc4O3)CC2)C1=O (some centres not stated) | 11200
c1ccc2c(c1)OC[C@H](CN1CCN(c3nsnc3Nc3ccncn3)CC1)O2 | 45900
O=C1CCCN1c1cccnc1N1CCN(C[C@H]2COc3ccccc3O2)CC1 | 4490

State the recorded Ratio for every item in the following list.
1. COCc1cccnc1N1CCN(C[C@H]2COc3ccccc3O2)CC1
2. O=C1NCCN1c1nsnc1N1CCN(C[C@H]2COc3ccccc3O2)CC1
3. Cc1c(N2CCNC2=O)c(N2CCN(C[C@H]3COc4ccccc4O3)CC2)nn1C
4. CN(C)C(=O)c1nsnc1N1CCN(C[C@H]2COc3ccccc3O2)CC1
5. O=C1CCCN1c1ncsc1N1CCN(C[C@H]2COc3ccccc3O2)CC1
6. O=C1CCCN1c1nsnc1N1CCN(C[C@H]2COc3ccccc3O2)CC1
7. COc1scnc1N1CCN(C[C@H]2COc3ccccc3O2)CC1
8. CN1CCN(c2nsnc2N2CCN(C[C@H]3COc4ccccc4O3)CC2)C1=O

Completion:
[4330, 5930, 7480, 4990, 7940, 5380, 8830, 4.15]

Prompt: Recorded Ratio for `CC1(C)CCN(c2nsnc2N2CCN(C[C@H]3COc4ccccc4O3)CC2)C1=O` , please?
Completion: 44900

* * *

assay: AUC (0 to 6 hrs) in rat plasma at 1 mg/kg, po; type: ADME, organism-based; parameters: dose 1 mg/kg, route po
ENDPOINT: AUC(0-t) (ng·h/mL)
Answers are plain numbers, in ng·h/mL.

State the recorded AUC(0-t) for every item in the following list.
1. Oc1cccc([C@H]2CCCN(C[C@H]3COc4ccccc4O3)C2)c1
2. O=C1CCCN1c1nsnc1N1CCN(C[C@H]2COc3ccccc3O2)CC1

Completion:
1: 9; 2: 189

* * *

experiment: Unbound fraction in rat plasma at 1 mg/kg, po; type: ADME, organism-based
ENDPOINT: fraction unbound
Give bare numbers.

Prompt: Recorded fraction unbound for `O=C1CCCN1c1nsnc1N1CCN(C[C@H]2COc3ccccc3O2)CC1` , please?
Completion: 0.185

* * *

experiment: Solubility of the compound in pH 7.4 buffer; type: physicochemical
Label rule, in plain words: solubility of 400 µM and up is fulfilled, under 400 µM is not fulfilled.

Below, 3 compounds whose answers are already recorded.
SMILES | CLASS_LABEL
CC1(C)CCN(c2nsnc2N2CCN(C[C@H]3COc4ccccc4O3)CC2)C1=O | not fulfilled
COCc1cccnc1N1CCN(C[C@H]2COc3ccccc3O2)CC1 | not fulfilled
COc1scnc1N1CCN(C[C@H]2COc3ccccc3O2)CC1 | fulfilled

Prompt: Decide: is the reported value of solubility for `Cc1c(N2CCNC2=O)c(N2CCN(C[C@H]3COc4ccccc4O3)CC2)nn1C` equal to or greater than 400 µM?
Completion: not fulfilled

* * *

assay: Unbound fraction in rat brain at 1 mg/kg, po; type: ADME, organism-based
ENDPOINT: fraction unbound
One number for each entry.

Prompt: Recorded fraction unbound for `O=C1CCCN1c1nsnc1N1CCN(C[C@H]2COc3ccccc3O2)CC1` , please?
Completion: 0.104

* * *

assay: Efflux ratio of permeability across basolateral to apical side over apical to basolateral side in human Caco-2 cells; assay type: ADME, cell-based
Please respond with reported efflux ratio for every item in the list.
Give bare numbers.

Use these answered entries as a reference point.
SMILES | efflux ratio
Cc1c(N2CCNC2=O)c(N2CCN(C[C@H]3COc4ccccc4O3)CC2)nn1C | 7.5
O=C1CCCN1c1nsnc1N1CCN(C[C@H]2COc3ccccc3O2)CC1 | 0.6

Could you now consider this next compound?
Prompt: Recorded efflux ratio for `O=C1CCCN1c1ncsc1N1CCN(C[C@H]2COc3ccccc3O2)CC1` , please?
Completion: 0.6

* * *

assay: Metabolic stability in human hepatocytes assessed as clearance per 10^6 cells at 1 uM; format: ADME, cell-based, Hepatocyte; conditions: read-out: CLH
Each record is given condition met if its reported hepatocyte CLint at 1 µM is strictly below 6 µL/min/1e6 cells. Records at or above 6 µL/min/1e6 cells are given condition not met.

Prompt: Consider `O=C1CCCN1c1ncsc1N1CCN(C[C@H]2COc3ccccc3O2)CC1` . Does its hepatocyte CLint at 1 µM lie strictly below 6 µL/min/1e6 cells?
Completion: condition met

* * *

Please respond with reported AUC(0-t) for every item in the list.
assay: AUC (0 to 6 hrs) in rat brain at 1 mg/kg, po; type: ADME, organism-based; parameters: dose 1 mg/kg, route po
Give bare numbers, in ng·h/mL.

SMILES | ASSAY_RESULT
O=C1CCCN1c1nsnc1N1CCN(C[C@H]2COc3ccccc3O2)CC1 | 140

Could you now consider this next molecule?
Prompt: Recorded AUC(0-t) for `Oc1cccc([C@H]2CCCN(C[C@H]3COc4ccccc4O3)C2)c1` , please?
Completion: 14

* * *

assay: Tmax in rat brain at 1 mg/kg, po; assay type: ADME, organism-based
ENDPOINT: Tmax (min)
One number for each entry, in min.

Prompt: Recorded Tmax for `O=C1CCCN1c1nsnc1N1CCN(C[C@H]2COc3ccccc3O2)CC1` , please?
Completion: 15

* * *

experiment: Unbound brain-to-plasma concentration ratio in rat at 1 mg/kg, po; type: ADME, organism-based; conditions: brain and plasma, read-out: K(p,uu,brain)
ENDPOINT: Kp uu
Answers are plain numbers.

Prompt: Recorded Kp uu for `O=C1CCCN1c1nsnc1N1CCN(C[C@H]2COc3ccccc3O2)CC1` , please?
Completion: 0.45

* * *

test: Permeability across basolateral to apical side in human Caco-2 cells; assay type: ADME, cell-based; conditions: read-out: permeability
ENDPOINT: Papp B→A (×10⁻⁶ cm/s)
Answers are plain numbers, in ×10⁻⁶ cm/s.

SMILES | MEASURE_UNIT | ASSAY_RESULT
O=C1CCCN1c1ncsc1N1CCN(C[C@H]2COc3ccccc3O2)CC1 | ×10⁻⁶ cm/s | 24.3
O=C1CCCN1c1nsnc1N1CCN(C[C@H]2COc3ccccc3O2)CC1 | ×10⁻⁶ cm/s | 44.3

Could you now consider this next molecule?
Prompt: Recorded Papp B→A for `Cc1c(N2CCNC2=O)c(N2CCN(C[C@H]3COc4ccccc4O3)CC2)nn1C` , please?
Completion: 21.4

* * *

assay: Metabolic stability in rat hepatocytes assessed as clearance per 10^6 cells at 1 uM; format: ADME, cell-based, Hepatocyte; settings: read-out: CLH
ENDPOINT: hepatocyte CLint at 1 µM (µL/min/1e6 cells)
Answers are plain numbers, in µL/min/1e6 cells.

COMPOUND | MEASURE_UNIT | hepatocyte CLint at 1 µM
O=C1CCCN1c1ncsc1N1CCN(C[C@H]2COc3ccccc3O2)CC1 | µL/min/1e6 cells | 5

State the recorded hepatocyte CLint at 1 µM for every item in the following list.
1. O=C1CCCN1c1nsnc1N1CCN(C[C@H]2COc3ccccc3O2)CC1
2. COc1scnc1N1CCN(C[C@H]2COc3ccccc3O2)CC1
3. CC1(C)CCN(c2nsnc2N2CCN(C[C@H]3COc4ccccc4O3)CC2)C1=O
4. CC1CCN(c2nsnc2N2CCN(C[C@H]3COc4ccccc4O3)CC2)C1=O (some centres undefined)
5. CN(C)C(=O)c1nsnc1N1CCN(C[C@H]2COc3ccccc3O2)CC1
6. c1ccc2c(c1)OC[C@H](CN1CCN(c3nsnc3Nc3ccncn3)CC1)O2

Completion:
16.2
54.4
128
73.7
30
29.3

State the recorded hepatocyte CLint at 1 µM for every item in the following list.
1. Cc1c(N2CCNC2=O)c(N2CCN(C[C@H]3COc4ccccc4O3)CC2)nn1C
2. O=C1NCCN1c1nsnc1N1CCN(C[C@H]2COc3ccccc3O2)CC1

Completion:
1.8
1.8

* * *

molecular target: Alpha-2C adrenergic receptor (Homo sapiens) (UniProt P18825); experiment: Antagonist activity at alpha2c-adrenoceptor (unknown origin) assessed as reduction in adrenaline-induced response by measuring equilibrium binding constant; conditions: filed as antagonist
Sequence (P18825 whole entry): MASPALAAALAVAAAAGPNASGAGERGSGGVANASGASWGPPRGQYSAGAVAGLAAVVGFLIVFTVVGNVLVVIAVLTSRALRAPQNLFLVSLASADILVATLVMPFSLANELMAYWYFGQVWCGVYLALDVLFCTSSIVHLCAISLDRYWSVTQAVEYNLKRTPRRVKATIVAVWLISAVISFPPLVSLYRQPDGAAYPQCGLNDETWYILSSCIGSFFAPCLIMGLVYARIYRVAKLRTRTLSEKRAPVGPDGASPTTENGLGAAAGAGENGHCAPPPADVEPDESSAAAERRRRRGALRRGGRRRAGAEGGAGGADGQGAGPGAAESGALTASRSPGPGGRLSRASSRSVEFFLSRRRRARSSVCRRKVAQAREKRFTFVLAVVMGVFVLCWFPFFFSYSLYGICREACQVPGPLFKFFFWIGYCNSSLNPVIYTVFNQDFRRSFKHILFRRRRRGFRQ
ENDPOINT: Kb
Please append the unit to your numeric answer.

COMPOUND | Kb
COc1scnc1N1CCN(C[C@H]2COc3ccccc3O2)CC1 | 0.01 nM
O=C1CCCN1c1ncsc1N1CCN(C[C@H]2COc3ccccc3O2)CC1 | 0.04 nM
O=C1CCCN1c1nsnc1N1CCN(C[C@H]2COc3ccccc3O2)CC1 | 0.05 nM
c1ccc2c(c1)OC[C@H](CN1CCN(c3nsnc3Nc3ccncn3)CC1)O2 | 0.01 nM
CC1CCN(c2nsnc2N2CCN(C[C@H]3COc4ccccc4O3)CC2)C1=O (some centres not stated) | 0.04 nM

State the recorded Kb for every item in the following list.
1. O=C1CCCN1c1cccnc1N1CCN(C[C@H]2COc3ccccc3O2)CC1
2. COCc1cccnc1N1CCN(C[C@H]2COc3ccccc3O2)CC1
3. Cc1c(N2CCNC2=O)c(N2CCN(C[C@H]3COc4ccccc4O3)CC2)nn1C
4. O=C1NCCN1c1nsnc1N1CCN(C[C@H]2COc3ccccc3O2)CC1
5. CN(C)C(=O)c1nsnc1N1CCN(C[C@H]2COc3ccccc3O2)CC1

Completion:
["0.01 nM", "0.03 nM", "0.06 nM", "0.076 nM", "0.09 nM"]

State the recorded Kb for every item in the following list.
1. CC1(C)CCN(c2nsnc2N2CCN(C[C@H]3COc4ccccc4O3)CC2)C1=O
2. CN1CCN(c2nsnc2N2CCN(C[C@H]3COc4ccccc4O3)CC2)C1=O

Completion:
0.01 nM
108 nM
